Reference source: ChEMBL document CHEMBL1141723

Please go through the items and note down their pKi.
- system.name: Matrix metalloproteinase-9 (Homo sapiens, UniProt P14780)
- Sequence (P14780 whole entry): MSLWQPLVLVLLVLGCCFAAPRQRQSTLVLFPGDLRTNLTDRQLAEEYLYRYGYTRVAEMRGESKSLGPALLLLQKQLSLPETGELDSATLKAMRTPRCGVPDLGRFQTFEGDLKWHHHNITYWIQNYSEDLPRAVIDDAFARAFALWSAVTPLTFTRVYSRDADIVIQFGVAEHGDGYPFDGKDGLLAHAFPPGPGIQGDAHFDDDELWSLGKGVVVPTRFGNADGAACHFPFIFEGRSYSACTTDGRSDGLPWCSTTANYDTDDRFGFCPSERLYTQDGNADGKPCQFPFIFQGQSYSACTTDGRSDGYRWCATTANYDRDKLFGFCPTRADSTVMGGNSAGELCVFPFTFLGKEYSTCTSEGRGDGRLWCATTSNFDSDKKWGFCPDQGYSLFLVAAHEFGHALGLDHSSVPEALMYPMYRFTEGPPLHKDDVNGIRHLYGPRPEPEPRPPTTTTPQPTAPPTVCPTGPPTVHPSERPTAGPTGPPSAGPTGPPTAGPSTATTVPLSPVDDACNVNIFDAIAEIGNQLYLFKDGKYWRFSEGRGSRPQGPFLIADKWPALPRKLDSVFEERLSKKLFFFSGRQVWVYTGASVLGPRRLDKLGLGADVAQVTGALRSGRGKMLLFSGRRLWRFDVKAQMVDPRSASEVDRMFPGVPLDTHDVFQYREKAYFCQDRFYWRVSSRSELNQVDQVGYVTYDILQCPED
- assay.procedure: Inhibition of MMP9
pKi: −log10 of the molar value.

Okay, here is my list. What is pKi for each of these?
1. O=C1NCCCC[C@@H](C(=O)NCC(=O)N2CCOCC2)NC(=O)[C@H](Cc2ccc(-c3ccccc3C(F)(F)F)cc2)[C@@H](C(=O)NO)CCCO1
2. CC1(CN[C@H](C(=O)NO)[C@@H](Cc2cccc(O)c2)C(=O)N[C@H]2c3ccccc3C[C@H]2O)CC1
3. NC(=O)[C@H](CCC(=O)O)NC(=O)[C@H](CCC(=O)O)NC(=O)[C@H](Cc1cc(-c2ccc(-c3cccc(Cl)c3)cc2)no1)CP(=O)(O)c1ccc(Br)cc1
4. Cc1cc(COc2ccc(C(=O)N[C@@]3(CC(=O)NO)C[C@@H](C)N[C@@H](C)C3)cc2)c2ccccc2n1

1: < 5.70; 2: > 9.00; 3: 5.90; 4: < 5.52
